Experiment: qHTS Assay to Find Inhibitors of Chronic Active B-Cell Receptor Signaling: Hit Validation in Primary Screen; note: nearly all actives have a fitted effect of over 75% in size
Conditions: ABC-DLBCL IkB-luc/CBR ratio luminescence, 4 h; series mostly up to 46.1 µM
Text: Diffuse large B-cell lymphoma (DLBCL) is the most common category of non-Hodgkin lymphoma, with ~20,000 new cases per year in the United States. DLBCL should be regarded as a collection of different neoplasms. […] Following the addition of doxycycline to induce expression of the luciferases, the green luminescence in control cultures rises only slowly because the CBG fusion partner IkappaBalpha is targeted by IKK activity for rapid degradation. […]
In all, about 1,200 compounds went through this assay and about 480 (40%) were called active. Inconclusive results (about 29%) are left out. Calls come from the whole dose curve; as a rule, active = well fitted inhibition curve with a large enough effect; inconclusive = small, poorly fitted or top-dose-only effect; inactive = no such curve, though single readings can be large or run the other way. This is one part of the list.
Classes used: active, inactive

{"MOLECULE": "O=C(NC(=S)NC1CCSC1=O)c1cccs1 (configuration not stated)", "CAT": "inactive"}
{"MOLECULE": "CCOC(=O)c1[nH]c(C)c(C(=O)c2cc(F)ccc2F)c1C", "CAT": "active"}
{"MOLECULE": "CCCOc1ccccc1C1CC(=O)Nc2cc3c(cc21)OCCO3 (configuration not stated)", "CAT": "active"}
{"MOLECULE": "CC1=NN(C(N)=S)C(=O)C1N=Nc1cccc(C)c1 (configuration not stated)", "CAT": "inactive"}
{"MOLECULE": "CCN(CC(=O)Nc1cc(Cl)ccc1C)C(=O)C1CC1", "CAT": "inactive"}
{"MOLECULE": "CCOC(=O)c1[nH]c(C)c(C(=O)Nc2cc(Cl)ccc2C)c1C", "CAT": "active"}
{"MOLECULE": "C/C(CCC(C)C)=N\\NC(=O)COc1ccccc1-c1ccccc1", "CAT": "inactive"}
{"MOLECULE": "CCCOc1ccccc1C1CC(=O)Nc2cc3c(cc21)OCO3 (configuration not stated)", "CAT": "active"}
{"MOLECULE": "CCOc1ccccc1C1CC(=O)Nc2cc3c(cc21)OCCO3 (configuration not stated)", "CAT": "active"}
{"MOLECULE": "O=C(COc1ccccc1-c1ccccc1)N/N=C/c1ccc2ccccc2c1", "CAT": "active"}
{"MOLECULE": "CCOC(=O)c1[nH]c(C)c(C(=O)N2CCc3ccccc32)c1C", "CAT": "active"}
{"MOLECULE": "CCOC(=O)c1[nH]c(C)c(C(=O)OCC)c1C", "CAT": "active"}

====

Experiment: qHTS Assay to Find Inhibitors of Chronic Active B-Cell Receptor Signaling: Hit Validation in Primary Screen; note: nearly all actives have a fitted effect of over 75% in size
Details: ABC-DLBCL IkB-luc/CBR ratio luminescence, 4 h; series mostly up to 46.1 µM
Text: Diffuse large B-cell lymphoma (DLBCL) is the most common category of non-Hodgkin lymphoma, with ~20,000 new cases per year in the United States. DLBCL should be regarded as a collection of different neoplasms. […] Following the addition of doxycycline to induce expression of the luciferases, the green luminescence in control cultures rises only slowly because the CBG fusion partner IkappaBalpha is targeted by IKK activity for rapid degradation. […]
Among all 1,200 compounds or so, about 480 (40%) were called active. Not shown: some 29% with an inconclusive outcome. Calls come from the whole dose curve; as a rule, active = well fitted inhibition curve with a large enough effect; inconclusive = small, poorly fitted or top-dose-only effect; inactive = no such curve, though single readings can be large or run the other way. The list shows a part of the results.
Outcomes: 1 = active, -1 = inactive

{"MOLECULE": "C=CCN(CC=C)C(=S)NC(=O)c1ccc(OC)cc1", "CAT": -1}
{"MOLECULE": "O=C1N/C(=C/c2ccc(N3CCOCC3)o2)C(=O)N1c1ccccc1", "CAT": 1}
{"MOLECULE": "CCOCCOC(=O)c1[nH]c2c(c1C)C(=O)CC(c1cccs1)C2 (stereo not drawn)", "CAT": 1}
{"MOLECULE": "Cn1cccc1/C=C1\\SC(=Nc2ccc(O)cc2)NC1=O", "CAT": 1}
{"MOLECULE": "NC(=O)c1c(NC(=O)CSc2nc(N)cc(=O)[nH]2)sc2c1CCCC2", "CAT": 1}
{"MOLECULE": "CCCn1nnc(NC(=S)NC(=O)Cc2ccccc2)n1", "CAT": -1}
{"MOLECULE": "COc1ccc(C(=O)/C=C/c2ccc(O)cc2)c2c1CC(O)C(C)(C)O2 (stereo not drawn)", "CAT": 1}
{"MOLECULE": "Cc1cc(C)c(S(=O)(=O)Nc2ccc3c4c(cccc24)CC3)c(C)c1", "CAT": 1}
{"MOLECULE": "COCCOC(=O)c1[nH]c2c(c1C)C(=O)CC(c1ccccc1)C2 (stereo not drawn)", "CAT": -1}
{"MOLECULE": "O=C(CCl)Nc1cccc(S(=O)(=O)NC2=NCCC2)c1", "CAT": 1}
{"MOLECULE": "NS(=O)(=O)c1cc(C(=O)OCC(=O)N2CCc3ccccc3C2)ccc1Cl", "CAT": -1}
{"MOLECULE": "COc1ccc(C(=O)/C=C2/c3ccccc3CC(C)(C)N2C)cc1", "CAT": 1}
{"MOLECULE": "CCOc1ccc(C(=O)NC(=S)Nc2cccc(S(=O)(=O)NC3=NCCC3)c2)cc1", "CAT": 1}
{"MOLECULE": "Oc1ccc(Nc2nc(-c3cccnc3)cs2)cc1", "CAT": 1}
{"MOLECULE": "O=C(CCl)Nc1cccc(S(=O)(=O)NC2=NCCCCC2)c1", "CAT": 1}
{"MOLECULE": "CCOCCOC(=O)c1[nH]c2c(c1C)C(=O)CC(c1ccccc1)C2 (stereo not drawn)", "CAT": 1}
{"MOLECULE": "O=C1NC(=Nc2ccc(O)cc2)S/C1=C\\C=C\\c1ccco1", "CAT": 1}
{"MOLECULE": "COC(=O)c1[nH]c2c(c1C)C(=O)CC(c1ccccc1)C2 (stereo not drawn)", "CAT": 1}
{"MOLECULE": "Cc1ccc(/C(C#N)=C\\c2ccc(N3CCOCC3)o2)cc1", "CAT": -1}
{"MOLECULE": "Cc1cccc(NC(=S)N=Nc2c(O)n(C)c3ccc(S(=O)(=O)N4CCOCC4)cc23)c1", "CAT": -1}
{"MOLECULE": "O=C(Cc1cccs1)N/N=C/C=C/c1ccco1", "CAT": -1}
{"MOLECULE": "C/C(=N\\NC(N)=S)c1cc(-c2ccccc2)c(-c2ccccc2)s1", "CAT": -1}
{"MOLECULE": "COc1ccc(C(=O)n2c(-c3ccco3)nc3ccccc32)cc1", "CAT": 1}
